These measurements were taken from patent US5985836A.

So I've got a bunch of substances here, and I need their Percent Eluted by Fraction, 1M NaCl values.
# assayTarget: A1PI (Homo sapiens, UniProt P01009)
# Construct: Human plasma is currently the only approved source of therapeutic AlPI
# Sequence (P01009 25-418): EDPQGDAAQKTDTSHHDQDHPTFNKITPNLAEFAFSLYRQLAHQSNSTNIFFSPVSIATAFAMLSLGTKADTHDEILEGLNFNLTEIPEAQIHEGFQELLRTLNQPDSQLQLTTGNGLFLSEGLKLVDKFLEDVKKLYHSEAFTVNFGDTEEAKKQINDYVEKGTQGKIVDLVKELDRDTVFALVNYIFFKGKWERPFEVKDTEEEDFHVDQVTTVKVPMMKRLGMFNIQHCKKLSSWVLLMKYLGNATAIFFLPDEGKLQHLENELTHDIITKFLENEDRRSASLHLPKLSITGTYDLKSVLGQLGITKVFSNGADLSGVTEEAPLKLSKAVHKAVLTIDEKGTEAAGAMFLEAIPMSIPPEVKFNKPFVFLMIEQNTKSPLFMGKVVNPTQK
# testName: A1PI purification from 5 mg hSA + 1 mg A1PI on peptide column, A1PI mass balance
# Assay type: binding
# statedConditions: A1PI; 5 mg hSA + 1 mg A1PI, 20° C.; relative to total eluted
Ends that are not written are not given here.
One number for each entry, in %.

Recorded Percent Eluted by Fraction, 1M NaCl, per entry:
RYRIFI; 23
RLWRYG; 48
RAFWYI; 19
VIWLVR; 9

Give me Percent Eluted by Fraction, 1M NaCl for each of these substances, listed below.
1. YKFRFW
2. PYWIVR
3. WKLWRW
4. WIKWTK

Reply |
[18, 41, 20, 97]
